Entry source: PubChem BioAssay AID1508612

assay: passive permeability, PAMPA, ADME assay (AID 1508612); conditions: pH 7.4, 30.0 min, 50.0 µM
Reported values of Papp for individual entries
API: value field is a number in ×10⁻⁶ cm/s; no unit string.

Requested read-out: Papp. Entry: Cc1ccc(-n2ncc3c(Nc4cccc(C(=O)O)c4)ncnc32)cc1
13.2

Requested read-out: Papp. Entry: c1ccc2c(Nc3ccon3)nc(-c3ccncc3)nc2c1
247

Requested read-out: Papp. Entry: COc1cccc(CNc2ccc(S(=O)(=O)Nc3nc4ccccc4o3)cc2)c1O
106

Requested read-out: Papp. Entry: Cc1ccnc(C)c1C(=O)Nc1cccc([S+](=O)([O-])N(C)C)c1
98.5

Requested read-out: Papp. Entry: COc1cccc(CC(=O)Nc2nc(-c3ccc4c(c3)CCN4C(=O)c3ccccc3C)c(C)s2)c1
674

Requested read-out: Papp. Entry: O=C(Nc1cc(C(F)(F)F)ccc1N1CCOCC1)c1n[nH]c(=O)c2ccccc12
53.5
